# System Under Test: human RORγt (Homo sapiens)
# Construct: Gal4-DBD human RORγt hinge LBD/pcDNA 3.1
# Sequence (P51449 97-518): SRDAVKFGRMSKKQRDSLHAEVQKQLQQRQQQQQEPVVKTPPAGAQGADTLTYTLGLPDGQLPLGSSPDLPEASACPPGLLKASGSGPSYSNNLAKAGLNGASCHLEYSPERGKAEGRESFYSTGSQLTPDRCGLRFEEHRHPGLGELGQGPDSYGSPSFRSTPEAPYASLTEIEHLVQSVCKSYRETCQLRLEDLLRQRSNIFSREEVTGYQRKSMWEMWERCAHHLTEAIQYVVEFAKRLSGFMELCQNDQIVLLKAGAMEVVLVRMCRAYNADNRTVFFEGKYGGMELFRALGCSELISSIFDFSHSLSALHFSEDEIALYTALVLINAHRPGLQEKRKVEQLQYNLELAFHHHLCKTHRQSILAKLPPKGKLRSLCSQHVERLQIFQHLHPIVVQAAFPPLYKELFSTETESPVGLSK
# Measurement Description: RORγ transactivation assay in transfected HEK293 cells
# Condition: HEK293, n = 4; read-out: potency, inhibition of human RORγt in transactivation assay
Measured Parameter: IC50 (nM)
Answer in nM, number only, no unit symbol.

Query: Lab request: please report IC50 under test system human RORγt (Homo sapiens) for CCn1c(C(C)(C)Oc2ccc(F)cc2F)nc2cc(NC(=O)Cc3ccc(S(=O)(=O)CC)cc3)ccc21
Result: 111

---

# Measurement Description: Drug concentrations on day-8 in CS-model mice after 7-day intranasal treatment
# Type: in vivo
# Condition: C57BL/6, mouse, BAL fluid, other: intranasal; CS exposed mice, day-8, intranasal 10 µg/animal; read-out: Total concentration BAL fluid
Measured Parameter: concentration at 1 h (µM)
Answer in µM, number only, no unit symbol.

Query: Looking for the measured concentration at 1 h of CCn1c(C(C)(C)Oc2ccc(F)cc2F)nc2cc(NC(=O)Cc3ccc(S(=O)(=O)CC)cc3)ccc21 , can you help?
Result: 0.16

---

# Measurement Description: Toxicokinetics (blood), 14-day inhalation study in Sprague Dawley rats
# Assay type: in vivo, rat
# Condition: both sexes, Sprague-Dawley, rat, whole blood, inhaled or intranasal, 10.8 mg/kg/day, SD rat blood, inhalation, 10.8 mg/kg/day, Day 14, Mean; read-out: AUC0-tlast, mean (SE)
Measured Parameter: AUC(0-t)
Write the quantity with the unit trailing the number.

Query: Looking for the measured AUC(0-t) of CCn1c(C(C)(C)Oc2ccc(F)cc2F)nc2cc(NC(=O)Cc3ccc(S(=O)(=O)CC)cc3)ccc21 , can you help?
Result: 6750 ng·h/mL

---

# Measurement Description: Toxicokinetics (blood), 14-day inhalation study in Sprague Dawley rats
# Format: in vivo, rat
# Condition: female, Sprague-Dawley, rat, in vivo, inhaled or intranasal, 32.1 mg/kg/day, SD rat blood, inhalation, 32.1 mg/kg/day, Day 14, Female; read-out: AUC0-tlast, mean (SE)
Measured Parameter: AUC(0-t) (ng·h/mL)
Answer in ng·h/mL, number only, no unit symbol.

Query: Looking for the measured AUC(0-t) of CCn1c(C(C)(C)Oc2ccc(F)cc2F)nc2cc(NC(=O)Cc3ccc(S(=O)(=O)CC)cc3)ccc21 [PCCR-1] , can you help?
Result: 16200

---

# Measurement Description: Drug concentrations on day-8 in CS-model mice after 7-day intranasal treatment
# Type: in vivo
# Condition: C57BL/6, mouse, lung, other: intranasal; CS exposed mice, day-8, intranasal 50 µg/animal; read-out: Total concentration Lung
Measured Parameter: concentration at 1 h (µM)
Answer in µM, number only, no unit symbol.

Query: Looking for the measured concentration at 1 h of CCn1c(C(C)(C)Oc2ccc(F)cc2F)nc2cc(NC(=O)Cc3ccc(S(=O)(=O)CC)cc3)ccc21 [PCCR-1] , can you help?
Result: 379

---

# Measurement Description: Toxicokinetics (blood), 14-day inhalation study in Sprague Dawley rats
# Type: in vivo, rat
# Condition: both sexes, Sprague-Dawley, rat, blood, inhaled or intranasal, 3.4 mg/kg/day, SD rat blood, inhalation, 3.4 mg/kg/day, Day 1, Mean; read-out: AUC0-tlast, mean (SE)
Measured Parameter: AUC(0-t) (ng·h/mL)
Answer in ng·h/mL, number only, no unit symbol.

Query: Looking for the measured AUC(0-t) of CCn1c(C(C)(C)Oc2ccc(F)cc2F)nc2cc(NC(=O)Cc3ccc(S(=O)(=O)CC)cc3)ccc21 , can you help?
Result: 982

---

# Measurement Description: Toxicokinetics (blood), 14-day inhalation study in Sprague Dawley rats
# Format: in vivo, rat
# Condition: both sexes, Sprague Dawley, rat, blood, inhaled or intranasal, 10.8 mg/kg/day, from start of inhalation dosing; SD rat blood, 10.8 mg/kg/day, Day 1, Mean
Measured Parameter: Tmax (h)
Answer in h, number only, no unit symbol.

Query: Looking for the measured Tmax of CCn1c(C(C)(C)Oc2ccc(F)cc2F)nc2cc(NC(=O)Cc3ccc(S(=O)(=O)CC)cc3)ccc21 , can you help?
Result: 3

---

# Measurement Description: Toxicokinetics (blood), 14-day inhalation study in Sprague Dawley rats
# Type: in vivo, rat
# Condition: male, Sprague-Dawley, rat, whole blood, inhaled or intranasal, 10.8 mg/kg/day, SD rat blood, inhalation, 10.8 mg/kg/day, Day 14, Male; read-out: Cmax, mean (SE)
Measured Parameter: Cmax (ng/mL)
Answer in ng/mL, number only, no unit symbol.

Query: Looking for the measured Cmax of CCn1c(C(C)(C)Oc2ccc(F)cc2F)nc2cc(NC(=O)Cc3ccc(S(=O)(=O)CC)cc3)ccc21 , can you help?
Result: 359

---

# Measurement Description: Toxicokinetics (blood), 14-day inhalation study in Sprague Dawley rats
# Assay type: in vivo, rat
# Condition: female, Sprague-Dawley, rat, blood, inhaled or intranasal, 3.4 mg/kg/day, from start of inhalation dosing; SD rat blood, 3.4 mg/kg/day, Day 1, Female
Measured Parameter: Tmax (h)
Answer in h, number only, no unit symbol.

Query: Looking for the measured Tmax of CCn1c(C(C)(C)Oc2ccc(F)cc2F)nc2cc(NC(=O)Cc3ccc(S(=O)(=O)CC)cc3)ccc21 [PCCR-1] , can you help?
Result: 3

---

# Measurement Description: Toxicokinetics (blood), 14-day inhalation study in Sprague Dawley rats
# Type: in vivo, rat
# Condition: female, Sprague-Dawley, rat, blood, inhaled or intranasal, 3.4 mg/kg/day, SD rat blood, inhalation, 3.4 mg/kg/day, Day 14, Female; read-out: AUC0-tlast, mean (SE)
Measured Parameter: AUC(0-t) (ng·h/mL)
Answer in ng·h/mL, number only, no unit symbol.

Query: Looking for the measured AUC(0-t) of CCn1c(C(C)(C)Oc2ccc(F)cc2F)nc2cc(NC(=O)Cc3ccc(S(=O)(=O)CC)cc3)ccc21 , can you help?
Result: 2610
